IC50 by entry:
test system: STAT3 phosphorylation in Th17 cells; experiment: Inhibition of STAT3 phosphorylation in Th17 cells derived from human peripheral blood CD4CD45RO+ cells; type: cell-based; conditions: average of 3 donors, read-out: Inhibition of STAT3 phosphorylation IC50, Average
Supply the numeric figure in nM, leaving out any unit text.

Consider the following illustrative entries.
NC(=O)c1nc(-c2c(Cl)cccc2Cl)oc1Nc1ccc(C(=O)N2CCOCC2)cc1 [Comparative Compound B, reference compound]
61
NC(=O)c1nc(-c2c(Cl)cccc2Cl)oc1Nc1ccc(C(=O)N2CCS(=O)(=O)CC2)cc1
51

Continue with the next molecule.
Record NC(=O)c1nc(-c2c(Cl)cccc2Cl)oc1Nc1ccc(C(=O)N2CCS(=O)(=O)CC2)c(F)c1 ; system STAT3 phosphorylation in Th17 cells; IC50 = 92

###

hepatocyte CLint by entry:
assay: Hepatocyte stability assay, rat; type: in vitro ADME; settings: male, Sprague-Dawley, pooled hepatocytes, 37° C.
Supply the numeric figure in µL/min/1e6 cells, leaving out any unit text.

NC(=O)c1nc(-c2c(Cl)cccc2Cl)oc1Nc1ccc(C(=O)N2CCS(=O)(=O)CC2)cc1 [Compound (2)]
50
NC(=O)c1nc(-c2c(Cl)cccc2Cl)oc1Nc1ccc(C(=O)N2CCOCC2)cc1 [Comparative Compound B, reference compound]
104

Continue with the next compound.
Form: compound = NC(=O)c1nc(-c2c(Cl)cccc2Cl)oc1Nc1ccc(C(=O)N2CCS(=O)(=O)CC2)c(F)c1 [Compound (3)] ; hepatocyte CLint = 53.8

###

biological target: JAK3 (Homo sapiens, UniProt P52333)
Sequence (P52333 781-1124): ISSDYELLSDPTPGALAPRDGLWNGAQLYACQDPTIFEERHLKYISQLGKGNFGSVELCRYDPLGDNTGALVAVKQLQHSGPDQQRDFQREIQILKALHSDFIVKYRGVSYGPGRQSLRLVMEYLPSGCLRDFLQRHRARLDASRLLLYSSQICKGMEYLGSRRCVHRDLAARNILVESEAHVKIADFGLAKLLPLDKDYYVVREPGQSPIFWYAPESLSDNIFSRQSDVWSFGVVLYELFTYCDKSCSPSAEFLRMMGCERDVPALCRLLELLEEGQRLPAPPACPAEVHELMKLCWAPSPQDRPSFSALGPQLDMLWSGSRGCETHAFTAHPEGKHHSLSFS
IC50 by entry:
Supply the numeric figure in nM, leaving out any unit text.

NC(=O)c1nc(-c2c(F)cccc2Cl)oc1Nc1ccc(C(=O)N2CCOCC2)cc1 [A, reference compound]
290

Continue with the next compound.
Form: compound = NC(=O)c1nc(-c2c(Cl)cccc2Cl)oc1Nc1ccc(C(=O)N2CCOCC2)cc1 [Comparative Compound B, reference compound] ; IC50 = 271

###

These compounds were tested on TYK2 (Homo sapiens); pIC50 is the recorded read-out.
Sequence (P29597 833-1187): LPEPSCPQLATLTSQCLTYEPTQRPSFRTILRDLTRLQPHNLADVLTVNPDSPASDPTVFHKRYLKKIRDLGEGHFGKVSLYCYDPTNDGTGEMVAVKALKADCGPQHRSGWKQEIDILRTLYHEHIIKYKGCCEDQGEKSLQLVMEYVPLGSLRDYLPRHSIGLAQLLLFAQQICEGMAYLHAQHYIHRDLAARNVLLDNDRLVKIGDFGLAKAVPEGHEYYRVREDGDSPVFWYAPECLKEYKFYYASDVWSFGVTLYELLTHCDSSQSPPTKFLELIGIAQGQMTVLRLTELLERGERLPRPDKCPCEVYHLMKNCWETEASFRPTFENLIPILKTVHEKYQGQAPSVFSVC
Just the number, please; pIC50 means minus log10 of the concentration in mol/L.

Consider the following illustrative entries.
NC(=O)c1nc(-c2c(Cl)cccc2Cl)oc1Nc1ccc(C(=O)N2CCS(=O)(=O)CC2)c(F)c1
8.33
NC(=O)c1nc(-c2c(F)cccc2Cl)oc1Nc1ccc(C(=O)N2CCOCC2)cc1 [A, reference compound]
8.00
NC(=O)c1nc(-c2c(Cl)cccc2Cl)oc1Nc1ccc(C(=O)N2CCOCC2)cc1 [Comparative Compound B, reference compound]
8.29

Continue with the next compound.
Record NC(=O)c1nc(-c2c(Cl)cccc2Cl)oc1Nc1ccc(C(=O)N2CCS(=O)(=O)CC2)cc1 ; system TYK2 (Homo sapiens); pIC50 = 8.72

###

assay: Hepatocyte stability assay, human; format: in vitro ADME, human (mixed gender); conditions: both sexes, pooled hepatocytes, 37° C., read-out: Human T1/2
observedProperty: half-life
Include the unit right after the number.

Form: compound = NC(=O)c1nc(-c2c(Cl)cccc2Cl)oc1Nc1ccc(C(=O)N2CCS(=O)(=O)CC2)c(F)c1 ; half-life = 335 min

###

target: CYP3A4 (Homo sapiens, UniProt P08684); construct: from tissue; host or cells: pooled human liver microsomes; experiment: Cytochrome P450 inhibition assay, CYP3A4; assay type: in vitro ADME; conditions: pooled human liver microsomes, probe Midazolam; read-out: CYP3A4 (MID) IC50
Sequence (P08684 whole entry): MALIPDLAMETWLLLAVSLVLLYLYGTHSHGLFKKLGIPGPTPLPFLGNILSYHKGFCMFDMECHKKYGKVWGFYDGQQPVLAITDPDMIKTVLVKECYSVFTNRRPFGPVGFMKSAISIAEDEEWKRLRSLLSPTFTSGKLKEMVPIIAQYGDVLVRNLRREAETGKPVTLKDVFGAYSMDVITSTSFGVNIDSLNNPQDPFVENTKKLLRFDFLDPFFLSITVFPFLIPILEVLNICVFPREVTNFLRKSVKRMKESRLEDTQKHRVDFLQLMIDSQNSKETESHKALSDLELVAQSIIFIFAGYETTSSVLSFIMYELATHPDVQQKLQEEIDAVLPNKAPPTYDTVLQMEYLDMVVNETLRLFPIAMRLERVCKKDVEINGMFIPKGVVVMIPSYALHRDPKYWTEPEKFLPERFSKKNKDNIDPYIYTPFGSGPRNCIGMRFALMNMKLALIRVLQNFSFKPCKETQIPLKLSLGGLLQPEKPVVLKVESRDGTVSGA
pIC50: −log10 of the molar value.
observedProperty: pIC50

Consider the following illustrative entries.
NC(=O)c1nc(-c2c(Cl)cccc2Cl)oc1Nc1ccc(C(=O)N2CCS(=O)(=O)CC2)cc1
< 4.52
NC(=O)c1nc(-c2c(Cl)cccc2Cl)oc1Nc1ccc(C(=O)N2CCOCC2)cc1 [Comparative Compound B, reference compound]
< 4.52

Form: compound = NC(=O)c1nc(-c2c(Cl)cccc2Cl)oc1Nc1ccc(C(=O)N2CCS(=O)(=O)CC2)c(F)c1 ; pIC50 = < 4.52
